Reference for the values: the supplement of paper PMC10065799

Target: Grb2 SH2 (UniProt P62993)
Assay: SH2 binding enrichment of the phosphorylated peptide, bacterial display (enrichment ratio); higher = better substrate or ligand; peptides without Tyr show the background
outcome.measure: SH2 binding enrichment

The examples below pair each entry with its known result.
macromolecule_sequence="NVTGHYIPPFH [PPA2_Y59_S61P]" outcome_measure="SH2 binding enrichment" result=0.779
macromolecule_sequence="YADPYYDYEIE [ZC3H18_Y372]" outcome_measure="SH2 binding enrichment" result=0.787
macromolecule_sequence="TQNGVYSAANF [DDX5_Y535_YF]" outcome_measure="SH2 binding enrichment" result=0.861

(a) PVQAAYRKVVA [HBB_Y131_Q132R]
(b) GTQGSYLLSRK [UGT3A1_Y123_C121G]
Asked: Among a and b , whose measured SH2 binding enrichment is the smaller figure? Response format: the label of the selected entry.
Given back: b
(b: 0.584, a: 0.859)

* * *

Reported phosphorylation enrichment values for the following sequences.
Tested on: AncSZ
Assay: phosphorylation enrichment, bacterial display (enrichment ratio); higher = better substrate or ligand; peptides without Tyr show the background
Please respond with just the number, no unit label.

macromolecule_sequence="YRDALYKSMVD [PHEX_Y250_F252S]" result=0.757
macromolecule_sequence="WVFNHYRWFIW [BRCA2_Y2624_I2627F_YF]" result=1.13
macromolecule_sequence="DVCKKYAEAKD [ALB_Y343_N342K]" result=1.24
macromolecule_sequence="QAYSWYQHQRA [NDST1_Y714_R709Q]" result=1.13
macromolecule_sequence="VNNAVYGIDAM [EIF3J_Y143]" result=0.86

Asked: May I ask what phosphorylation enrichment has been recorded for ASELGYVFQAI [UROD_Y133] ?
Given back: 1.03

* * *

Molecular target: EPHB2 (UniProt P29323)
Sequence (P29323 whole entry, looked up): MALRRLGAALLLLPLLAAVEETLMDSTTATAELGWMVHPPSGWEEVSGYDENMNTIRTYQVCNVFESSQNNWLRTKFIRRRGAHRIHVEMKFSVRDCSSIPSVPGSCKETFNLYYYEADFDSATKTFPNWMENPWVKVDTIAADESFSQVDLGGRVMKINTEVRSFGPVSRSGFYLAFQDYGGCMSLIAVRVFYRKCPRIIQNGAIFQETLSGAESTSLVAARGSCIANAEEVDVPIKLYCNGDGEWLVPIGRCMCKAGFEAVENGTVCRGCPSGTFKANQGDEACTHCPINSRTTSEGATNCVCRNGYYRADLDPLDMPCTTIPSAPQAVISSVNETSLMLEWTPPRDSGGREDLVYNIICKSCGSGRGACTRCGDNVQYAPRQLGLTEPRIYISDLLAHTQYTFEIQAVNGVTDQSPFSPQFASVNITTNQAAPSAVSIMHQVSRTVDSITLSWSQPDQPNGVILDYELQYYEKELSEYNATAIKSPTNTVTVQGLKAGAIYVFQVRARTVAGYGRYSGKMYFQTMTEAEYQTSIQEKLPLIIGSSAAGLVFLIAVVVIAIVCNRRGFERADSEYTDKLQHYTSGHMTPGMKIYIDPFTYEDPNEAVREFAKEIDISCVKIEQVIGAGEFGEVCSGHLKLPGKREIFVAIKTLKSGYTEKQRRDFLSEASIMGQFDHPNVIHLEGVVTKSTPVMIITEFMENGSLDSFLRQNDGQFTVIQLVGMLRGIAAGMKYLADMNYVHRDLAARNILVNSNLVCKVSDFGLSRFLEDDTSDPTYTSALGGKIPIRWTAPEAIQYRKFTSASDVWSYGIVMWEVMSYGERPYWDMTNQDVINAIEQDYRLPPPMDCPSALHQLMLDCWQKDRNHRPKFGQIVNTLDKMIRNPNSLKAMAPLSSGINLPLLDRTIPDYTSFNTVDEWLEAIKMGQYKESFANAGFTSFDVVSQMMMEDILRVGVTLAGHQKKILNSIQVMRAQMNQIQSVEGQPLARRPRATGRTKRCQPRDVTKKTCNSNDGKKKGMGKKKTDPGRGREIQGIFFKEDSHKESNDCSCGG
Experiment: phosphorylation enrichment, bacterial display (enrichment ratio); higher = better substrate or ligand; peptides without Tyr show the background
We begin with a simple list: items and their reported phosphorylation enrichment.
Response field accepts a number only; no unit should be typed.

macromolecule_sequence="TSNNPYFRDQA [RPGRIP1_Y846_A841T]" system="EPHB2 (UniProt P29323)" result=0.374
macromolecule_sequence="LWKWKYEELKE [CCDC102B_Y299]" system="EPHB2 (UniProt P29323)" result=0.493
macromolecule_sequence="KEDSAYGSQSV [NFKB2_Y868]" system="EPHB2 (UniProt P29323)" result=0.521
macromolecule_sequence="KKFFSYAWPFF [BRDT_Y291_H288Y_YF]" system="EPHB2 (UniProt P29323)" result=0.545
macromolecule_sequence="GGQVFYNSEYG [FLT4_Y1333]" system="EPHB2 (UniProt P29323)" result=0.442

Asked: What does the record list as phosphorylation enrichment for LAVVDYIRRQK [ATM_Y1915_M1916I] ?
Given back: 1.42

Asked: Could you tell me which phosphorylation enrichment is on file for CTTIHDNYMCN [TP53_Y234_Y234D] ?
Given back: 0.556

Asked: What does the record list as phosphorylation enrichment for RPSELYFSKIG [SMG1_Y2253_YF] ?
Given back: 0.457

* * *

Each record here notes measured phosphorylation enrichment.
Molecular target: MERTK (UniProt Q12866)
Sequence (Q12866 whole entry, looked up): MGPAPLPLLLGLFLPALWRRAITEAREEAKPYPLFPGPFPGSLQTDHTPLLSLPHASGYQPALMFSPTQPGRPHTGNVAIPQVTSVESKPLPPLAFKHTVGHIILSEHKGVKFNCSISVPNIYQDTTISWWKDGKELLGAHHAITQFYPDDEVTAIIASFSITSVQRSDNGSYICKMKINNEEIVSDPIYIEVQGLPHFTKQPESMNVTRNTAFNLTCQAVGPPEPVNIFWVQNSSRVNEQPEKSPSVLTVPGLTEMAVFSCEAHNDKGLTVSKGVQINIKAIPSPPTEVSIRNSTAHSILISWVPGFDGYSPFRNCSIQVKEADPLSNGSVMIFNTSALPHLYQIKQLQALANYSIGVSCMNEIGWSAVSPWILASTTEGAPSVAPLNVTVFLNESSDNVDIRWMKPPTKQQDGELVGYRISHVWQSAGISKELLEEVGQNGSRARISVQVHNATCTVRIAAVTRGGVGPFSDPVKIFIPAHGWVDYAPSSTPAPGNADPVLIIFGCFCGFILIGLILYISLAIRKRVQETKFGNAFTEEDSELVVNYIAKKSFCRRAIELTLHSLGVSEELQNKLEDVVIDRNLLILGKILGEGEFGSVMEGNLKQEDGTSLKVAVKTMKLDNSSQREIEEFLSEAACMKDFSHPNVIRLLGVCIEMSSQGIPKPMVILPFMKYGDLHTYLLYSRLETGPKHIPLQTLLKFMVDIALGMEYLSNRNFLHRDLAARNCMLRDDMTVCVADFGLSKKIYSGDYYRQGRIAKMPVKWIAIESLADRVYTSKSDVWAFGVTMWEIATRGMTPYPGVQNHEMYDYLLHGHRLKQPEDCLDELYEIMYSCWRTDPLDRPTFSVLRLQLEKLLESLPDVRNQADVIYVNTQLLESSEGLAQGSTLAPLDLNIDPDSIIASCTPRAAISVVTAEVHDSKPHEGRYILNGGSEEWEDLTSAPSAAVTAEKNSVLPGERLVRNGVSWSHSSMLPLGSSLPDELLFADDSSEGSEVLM
Assay: phosphorylation enrichment, bacterial display (enrichment ratio); higher = better substrate or ligand; peptides without Tyr show the background
// no unit string in output, number only

macromolecule_sequence="VTVLDYDKIGK [SYT1_Y365]" system="MERTK (UniProt Q12866)" result=0.48
macromolecule_sequence=ENAGFYFRVSA system="MERTK (UniProt Q12866)" result=0.44

Asked: Entry FEAMEYLESKQ [BTK_Y511_C506Y_YF] : reported phosphorylation enrichment = ?
Given back: 0.474

Asked: GET /values?readout=phosphorylation enrichment&item= GFEVVYVTEPI [HSP90AB1_Y512_M513V]
Given back: 0.386

Asked: Returns the measured phosphorylation enrichment for the input sequence. Input: DSNPIYSQIWS [FCRL3_Y662]
Given back: 11.8

Asked: Which phosphorylation enrichment is listed for ADNQRYAFMPL [TMEM87B_Y460_N456D] ?
Given back: 6.67

Asked: Any idea what its phosphorylation enrichment is? The sequence is VGIMLYGVDSR [PKD1_Y3143]
Given back: 0.383

Asked: For the sequence shown here, EVDGLYREAPI [MYL12B_Y143_E141G] , give the reported phosphorylation enrichment.
Given back: 0.443

Asked: Requested field: phosphorylation enrichment. Item: PTTKTYLPHFD [HBA1_Y43_F44L]
Given back: 0.494

Asked: Returns the measured phosphorylation enrichment for the input sequence. Input: VMIYAYLLHRG [PTEN_Y138_C136Y]
Given back: 0.591

Asked: State the recorded phosphorylation enrichment for this entry: FKIFRYTLNDN [FN1_Y1975_L1974R_YF]
Given back: 0.377
